System: SK-BR3
Experiment: cells
Assay type: cell-based
Conditions: Homo sapiens, SK-BR-3, 48 h, SK-BR3, 48 hours exposure, SRB
quantity: log10(IC (TGI)) (log10 of the value in nM)
In our notation, the value equals log10 of IC (TGI) in nM.

COc1c(C)cc2c(c1O)[C@@H]1C3[C@@H]4SC[C@]5(NCCc6c5[nH]c5ccc(F)cc65)C(=O)COC[C@@H](c5c6c(c(C)c(OC(C)=O)c54)OCO6)N3[C@@H](O)[C@H](C2)N1C (stereo partly drawn)	0.82
C=COC(=O)Oc1c(C)c2c(c3c1[C@H]1SC[C@]4(NCCC5c6ccccc6NC54)C(=O)OC[C@@H]3N3C1[C@H]1c4c(cc(C)c(OC)c4OC(=O)OC=C)C[C@@H]([C@@H]3C#N)N1C)OCO2 (stereo partly drawn)	1.78
COc1c(C)cc2c(c1O)[C@@H]1C3[C@@H]4SC[C@]5(NCCc6c5[nH]c5c(C)cccc65)C(=O)COC[C@@H](c5c6c(c(C)c(OC(C)=O)c54)OCO6)N3[C@@H](O)[C@H](C2)N1C (stereo partly drawn)	1.51
COc1c(C)cc2c(c1O)[C@@H]1C3[C@@H]4SC[C@]5(NCCc6c5[nH]c5ccccc65)C(=O)COC[C@@H](c5c6c(c(C)c(OC(=O)C(F)(F)C(F)(F)C(F)(F)F)c54)OCO6)N3[C@@H](C#N)[C@H](C2)N1C (stereo partly drawn)	2.00
COc1c(C)cc2c(c1O)[C@@H]1C3[C@@H]4SC[C@]5(C(=O)COC[C@@H](c6c7c(c(C)c(OC(C)=O)c64)OCO7)N3[C@@H](C#N)[C@H](C2)N1C)c1[nH]c2ccccc2c1CCN5C (stereo partly drawn)	2.73

Here is the next item to consider.
Challenge: // returns reported log10(IC (TGI)) for input COc1c(C)cc2c(c1O)[C@@H]1C3[C@@H]4SC[C@]5(NCCc6c5[nH]c5ccccc65)C(=O)COC[C@@H](c5c6c(c(C)c(OC(=O)OC(C)(C)C)c54)OCO6)N3[C@@H](C#N)[C@H](C2)N1C (stereo partly drawn)
Response given: 2.50

----------
Field: CC50. Provide a value for each of the molecules that follow.
Test system: HT29
Experiment: cells
Assay type: cell-based
Settings: HT29, 48 hours exposure, SRB; read-out: LC50 (the source's name)
Answers are plain numbers, in µM.

Batch of 4 molecules: report CC50 for each.
1. COc1c(C)cc2c(c1O)[C@@H]1C3[C@@H]4SC[C@]5(NC(C)Cc6c5[nH]c5ccc(O)cc65)C(=O)COC[C@@H](c5c6c(c(C)c(OC(C)=O)c54)OCO6)N3[C@@H](C#N)[C@H](C2)N1C (stereo partly shown)
2. COc1c(C)cc2c(c1O)[C@@H]1C3[C@@H]4SC[C@]5(NC(C)Cc6c5[nH]c5ccc(F)cc65)C(=O)COC[C@@H](c5c6c(c(C)c(OC(C)=O)c54)OCO6)N3[C@@H](C#N)[C@H](C2)N1C (stereo partly shown)
3. COc1c(C)cc2c(c1O)[C@@H]1C3[C@@H]4SC[C@]5(NC(C)Cc6c5[nH]c5ccccc65)C(=O)COC[C@@H](c5c6c(c(C)c(OC(C)=O)c54)OCO6)N3[C@@H](C#N)[C@H](C2)N1C (stereo partly shown)
4. COc1c(C)cc2c(c1O)[C@@H]1C3[C@@H]4SC[C@]5(C(=O)COC[C@@H](c6c7c(c(C)c(OC(C)=O)c64)OCO7)N3[C@@H](C#N)[C@H](C2)N1C)c1[nH]c2ccccc2c1CCN5C (stereo partly shown)

Response given:
1: 12.6; 2: 12.8; 3: 12.9; 4: 12.9
